target-entity: Urotensin-2 receptor (Homo sapiens)
Sequence (Q9UKP6 whole entry): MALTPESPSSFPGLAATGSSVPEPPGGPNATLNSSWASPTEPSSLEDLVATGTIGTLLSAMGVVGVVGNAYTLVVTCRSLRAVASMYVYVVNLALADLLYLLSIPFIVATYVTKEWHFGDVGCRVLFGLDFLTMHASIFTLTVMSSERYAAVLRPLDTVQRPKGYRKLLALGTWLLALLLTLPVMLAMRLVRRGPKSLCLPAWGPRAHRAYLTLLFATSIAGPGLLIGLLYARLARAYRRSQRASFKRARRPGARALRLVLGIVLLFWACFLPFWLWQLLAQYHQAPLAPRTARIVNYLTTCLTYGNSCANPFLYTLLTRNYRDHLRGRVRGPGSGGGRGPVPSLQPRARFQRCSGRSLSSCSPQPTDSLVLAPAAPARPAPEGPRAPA
measurement-protocol: Binding affinity using [125I]hU-II radioligand binding assay in HEK293 cell membranes expressing human Urotensin 2 receptor
pKi: −log10 of the molar value.
Would you mind telling me the reported pKi of each entry?

{"columns": ["compound", "pKi"],
 "data": [
  ["CN(C)CCCOc1ccc(CN2CC[C@H](NC(=O)c3ccc(-c4ccccc4)cc3)C2)cc1", "< 5.00"],
  ["CC(=O)N[C@H]1CCN(Cc2ccc(OCCCN(C)C)cc2)C1", "< 5.00"]
]}

Now for the compound whose pKi we want.
Req: Could you please provide reported pKi for CC(C)C[C@H](NC(=O)c1cc2ccccc2o1)C(=O)NC1CCN(Cc2ccc(OCCCN(C)C)cc2)C1 (single isomer, unassigned; 2d) ? Thanks!
Resp: < 5.00

Every entry's value here was drawn from ChEMBL document CHEMBL1140236.
